Tested on: Microglial cells
Experiment: Dose response inhibition of NO release from microglia, 0.5-500 μM (Example 9)
Format: cell-based
Details: Microglia, 48 h, dose 250 μM; NO release, LPS/IFNγ, 48 hours; read-out: Avg % Inhibition
Provide the recorded inhibition at 250 µM for the entries that follow.
Answers are plain numbers, in %.

Would you mind giving inhibition at 250 µM for every compound in the list below?
1. O=C(NCc1ccc(O)c(O)c1)C(=Cc1ccc(O)c(O)c1)NC(=O)c1ccc(O)c(O)c1
2. O=C(CCC(=O)NCc1ccc(O)c(O)c1)NCc1ccc(O)c(O)c1
3. O=C(N[C@@H]1CCCC[C@H]1NC(=O)c1ccc(O)c(O)c1)c1ccc(O)c(O)c1 (relative stereo)
4. Oc1ccc(CNCc2ccc(O)c(O)c2)cc1O [Compound 73, bis(3,4-dihydroxybenzyl)amine]

[A]
1. 83.5
2. 44.4
3. 35.2
4. 45.3
